Catalogue of Ratio readings, one per entry.
# measurement.target: ATP-dependent translocase ABCB1 (Homo sapiens, UniProt P08183)
# Sequence (P08183 whole entry): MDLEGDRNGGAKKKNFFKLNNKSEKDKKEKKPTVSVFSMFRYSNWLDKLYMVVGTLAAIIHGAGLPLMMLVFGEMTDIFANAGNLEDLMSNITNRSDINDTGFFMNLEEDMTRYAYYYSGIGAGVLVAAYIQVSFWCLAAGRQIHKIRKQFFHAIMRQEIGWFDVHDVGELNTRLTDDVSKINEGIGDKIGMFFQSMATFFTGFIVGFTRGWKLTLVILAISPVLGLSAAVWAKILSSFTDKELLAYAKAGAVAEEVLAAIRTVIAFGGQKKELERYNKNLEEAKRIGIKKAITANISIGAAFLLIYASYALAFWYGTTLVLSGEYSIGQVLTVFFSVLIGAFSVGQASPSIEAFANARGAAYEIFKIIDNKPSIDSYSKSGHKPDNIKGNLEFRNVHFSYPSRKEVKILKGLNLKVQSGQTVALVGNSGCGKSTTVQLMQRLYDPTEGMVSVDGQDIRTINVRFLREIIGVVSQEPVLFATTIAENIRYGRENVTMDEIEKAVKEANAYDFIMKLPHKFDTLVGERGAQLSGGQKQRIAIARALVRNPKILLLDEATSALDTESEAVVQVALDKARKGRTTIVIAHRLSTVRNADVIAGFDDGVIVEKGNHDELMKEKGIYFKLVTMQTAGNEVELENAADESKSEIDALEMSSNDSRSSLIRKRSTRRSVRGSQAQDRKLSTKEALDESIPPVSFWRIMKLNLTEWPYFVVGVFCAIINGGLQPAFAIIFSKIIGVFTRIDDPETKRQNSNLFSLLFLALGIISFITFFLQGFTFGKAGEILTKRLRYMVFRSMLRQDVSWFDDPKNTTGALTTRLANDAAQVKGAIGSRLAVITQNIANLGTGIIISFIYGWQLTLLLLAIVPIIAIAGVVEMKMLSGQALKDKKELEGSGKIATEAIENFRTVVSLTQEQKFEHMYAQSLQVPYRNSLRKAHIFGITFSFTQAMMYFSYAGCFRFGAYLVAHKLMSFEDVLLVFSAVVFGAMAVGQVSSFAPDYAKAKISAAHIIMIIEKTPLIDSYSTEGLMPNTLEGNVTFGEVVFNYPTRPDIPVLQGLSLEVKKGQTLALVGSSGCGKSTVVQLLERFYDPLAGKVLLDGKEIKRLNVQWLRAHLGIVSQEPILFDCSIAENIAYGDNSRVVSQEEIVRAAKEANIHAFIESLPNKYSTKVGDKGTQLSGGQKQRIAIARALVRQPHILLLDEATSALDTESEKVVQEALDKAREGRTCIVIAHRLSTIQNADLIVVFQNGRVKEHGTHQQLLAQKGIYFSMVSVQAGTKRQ
# protocol.text: Inhibition of MDR1-mediated rhodamine 123 uptake expressed in mouse L5178Y cells transfected with pHa MDR1/A assessed as fluorescence activity ratio at 4 ug/mL by flow cytometry relative to untreated control
# Assay type: cell-based
Just the number, please.

smiles.text | measurement.target | measured.result
C=C1[C@H](OC(=O)C(C)C)CC(=O)C(C)(C)/C=C/[C@@H](C)C(=O)[C@@]2(OC(C)=O)C[C@H](C)[C@H](OC(C)=O)[C@@H]2[C@H]1OC(C)=O | ATP-dependent translocase ABCB1 (Homo sapiens, UniProt P08183) | 24.9

Q. Consider the compound `CC(=O)O[C@H]1[C@H]2OC(=O)CC[C@](O)([C@@H]1OC(=O)C(C)C)[C@H](OC(C)=O)[C@H]1[C@@H](OC(C)=O)[C@](C)(OC(C)=O)C[C@]1(OC(C)=O)C(=O)[C@H](C)[C@H]1O[C@@H]1C2(C)C` and give its measured Ratio.
A. 5.9

Data provenance: ChEMBL document CHEMBL1811799
